| MOLECULE | melting point |
| --- | --- |
| Cc1c(C)n(Cc2ccco2)c2ncnc(NCCc3ccc(N)cc3)c12 | 150 to 151.5 °C |
| OC(CNc1ncnc2c1ccn2Cc1ccccc1)c1ccccc1 (stereo not drawn) | 195 to 197 °C |
| Cc1c(C)n(Cc2cccc(Cl)c2)c2ncnc(NCCc3ccc(NC(=O)c4ccccc4)cc3)c12 | 151 to 152.3 °C |
| COc1ccc(CCNc2ncnc3c2c(C)c(C)n3Cc2ccccc2)cc1 | 100 to 101.9 °C |
| Cc1c(C)n(Cc2ccco2)c2ncnc(NCCc3ccccc3)c12 | 221 to 223 °C |
| Cc1c(C)n(Cc2ccccc2)c2ncnc(NCCc3ccc(NS(C)(=O)=O)cc3)c12 | 175.7 to 176.4 °C |
| COc1ccc(CCNc2ncnc3c2ccn3Cc2ccccc2)cc1OC | 177.3 to 178.3 °C |
| CC(=O)Nc1ccc(CCNc2ncnc3c2c(C)c(C)n3Cc2ccco2)cc1 | 206.8 to 208.1 °C |
| Clc1ccccc1CCNc1ncnc2c1ccn2Cc1cncc(Br)c1 | 114 to 115 °C |

FYI, the data here is from patent US10344032B2.
